procedure-summary: yeast display, Sf9 membrane polyspecificity reagent, FACS + sequencing; frameworks hold sequencing errors
parameter: polyreactivity (PSR sort gate)

>>> result("QVQLVESGGGLVQAGGSLRLSCAASGFTFYRYAMGWYRQAPGKERELVAAITASGGSTYYADSVKGRFTISRDNAKNTVYLQMNSLKPEDTAVYYCAKGWVSYWRYKNEYWGQGTQVTVSS")
"high polyreactivity"
>>> result("QVHLVESGGGLVQAGGRLRLSCAASGYIFSVYAMGLYRQAPGKERELVAAISSGGSTYYADSLKGRLTISRDNAKYTVYLQMNSLKPEDTAVYYCAAESVYVYWYYVDYDYWGQGTQVTVSS")
"high polyreactivity"
